target: Hck (UniProt P08631); assay: phosphorylation enrichment, bacterial display (enrichment ratio); higher = better substrate or ligand; peptides without Tyr show the background;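 further: 11-residue human phosphosite peptides and single-mutation variants displayed on the E. coli surface, counted by deep sequencing, each peptide's frequency after selection divided by its frequency in the unselected input library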;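 further: frequency after pTyr selection over input frequency; kinase dosed for 20-30% of maximal phosphorylation in three min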
Sequence (P08631 whole entry, looked up): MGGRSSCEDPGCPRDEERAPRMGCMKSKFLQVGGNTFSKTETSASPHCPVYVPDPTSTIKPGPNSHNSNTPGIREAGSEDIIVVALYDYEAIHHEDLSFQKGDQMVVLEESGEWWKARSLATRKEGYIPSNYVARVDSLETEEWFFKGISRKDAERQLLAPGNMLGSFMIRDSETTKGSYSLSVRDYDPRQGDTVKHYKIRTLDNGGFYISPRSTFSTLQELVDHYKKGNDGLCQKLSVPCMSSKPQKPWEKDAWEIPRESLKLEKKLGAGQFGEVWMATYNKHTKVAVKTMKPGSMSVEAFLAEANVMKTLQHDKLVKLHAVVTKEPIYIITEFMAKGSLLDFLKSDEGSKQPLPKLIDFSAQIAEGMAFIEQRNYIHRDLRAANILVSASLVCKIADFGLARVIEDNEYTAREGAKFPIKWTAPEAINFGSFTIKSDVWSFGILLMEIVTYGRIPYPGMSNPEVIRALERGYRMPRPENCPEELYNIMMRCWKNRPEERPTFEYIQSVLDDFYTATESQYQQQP
reportedEndpoint: phosphorylation enrichment
No unit in the answer, please; the number alone is enough.

Need phosphorylation enrichment of FALAEYTEVKT [ALDH1A3_Y497_YF] , thanks.
0.635

Need phosphorylation enrichment of RMGNLYDIDED [GRIN2A_Y1246] , thanks.
1.25

Need phosphorylation enrichment of KLNNEYLELNY [MME_Y497] , thanks.
0.627

Need phosphorylation enrichment of NHFKIYNPCAE [PTEN_Y68_L70P_YF] , thanks.
0.56

Need phosphorylation enrichment of YSSLGYPPPEG [ZSWIM4_Y87] , thanks.
1.66

Need phosphorylation enrichment of PATYTYDEYKK [COL8A2_Y648] , thanks.
1.55

Need phosphorylation enrichment of GPIEVYLCPEE [E2F3_Y349] , thanks.
0.549

###

target: FGFR1 (UniProt P11362); test: phosphorylation enrichment, bacterial display (enrichment ratio); higher = better substrate or ligand; peptides without Tyr show the background
Sequence (P11362 whole entry, looked up): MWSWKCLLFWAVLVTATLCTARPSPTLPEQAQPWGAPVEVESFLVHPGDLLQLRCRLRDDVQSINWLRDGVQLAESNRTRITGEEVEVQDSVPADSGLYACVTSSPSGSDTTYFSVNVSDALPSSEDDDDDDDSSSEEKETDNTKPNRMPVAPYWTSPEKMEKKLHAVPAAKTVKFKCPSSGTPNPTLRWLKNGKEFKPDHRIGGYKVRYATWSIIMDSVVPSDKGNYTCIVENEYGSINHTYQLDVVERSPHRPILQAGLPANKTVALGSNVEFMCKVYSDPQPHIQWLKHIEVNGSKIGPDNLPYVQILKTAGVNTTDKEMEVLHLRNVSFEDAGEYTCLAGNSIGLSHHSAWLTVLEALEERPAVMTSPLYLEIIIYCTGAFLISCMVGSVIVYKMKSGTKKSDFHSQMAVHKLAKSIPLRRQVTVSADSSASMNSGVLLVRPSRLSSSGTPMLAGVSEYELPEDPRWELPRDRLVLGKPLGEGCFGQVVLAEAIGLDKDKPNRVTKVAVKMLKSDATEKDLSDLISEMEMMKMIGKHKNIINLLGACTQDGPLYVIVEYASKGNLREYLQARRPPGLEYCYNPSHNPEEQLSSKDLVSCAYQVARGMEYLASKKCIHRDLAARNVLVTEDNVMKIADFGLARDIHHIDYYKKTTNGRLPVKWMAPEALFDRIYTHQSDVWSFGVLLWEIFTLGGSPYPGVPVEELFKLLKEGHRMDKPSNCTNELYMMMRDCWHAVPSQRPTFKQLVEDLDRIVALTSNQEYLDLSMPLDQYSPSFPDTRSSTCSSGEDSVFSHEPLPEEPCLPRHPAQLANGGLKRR
reportedEndpoint: phosphorylation enrichment
No unit in the answer, please; the number alone is enough.

Need phosphorylation enrichment of GRTNIYNNKKD [SLC26A3_Y520_K521N] , thanks.
0.324

Need phosphorylation enrichment of PSTFRYERGSR [INPPL1_Y663_P659S_YF] , thanks.
0.411

Need phosphorylation enrichment of QQLQGYVPSNY [FRK_Y99_I100V] , thanks.
0.458

Need phosphorylation enrichment of YADGVYLALEE [DUOX2_Y70_Q71L] , thanks.
1.12

Need phosphorylation enrichment of RGVTRYIYNRE [HLA-DQB1_Y62_Y58G] , thanks.
0.809

Need phosphorylation enrichment of HELYVYKCDEN [DOCK3_Y548] , thanks.
0.957

Need phosphorylation enrichment of SHSMRYFYTAV [HLA-C_Y31_D33Y] , thanks.
0.778

Need phosphorylation enrichment of SEEVNYATLTF [CLEC12B_Y7_T6N] , thanks.
1.25

Need phosphorylation enrichment of IVAREYYSDAD [CAMK2A_Y106_E109D] , thanks.
0.657

Need phosphorylation enrichment of FQQLFYLLQIN [IQGAP2_Y890_T894I_YF] , thanks.
0.648

Need phosphorylation enrichment of KPEKTYGLRNE [CEP43_Y267_K271N] , thanks.
0.394

Need phosphorylation enrichment of PANMVYSTVEI [SLAMF7_Y304_T302M] , thanks.
2.6

Need phosphorylation enrichment of PVDVAYRHGYF [PLEC_Y2967_R2969H] , thanks.
0.863

Need phosphorylation enrichment of RFLRGYRQFAF [HLA-A_Y137_D140Y_YF] , thanks.
0.643

Need phosphorylation enrichment of IITVHYVLEES [RYR2_Y4559_A4556T] , thanks.
0.594

Need phosphorylation enrichment of GELQGYDIMEP [MSH2_Y863_S860L] , thanks.
0.445

Need phosphorylation enrichment of KDHPDYKYQPR [SOX10_Y171] , thanks.
0.492

Need phosphorylation enrichment of FQKNVYSEELR [LMNA_Y211_I210V] , thanks.
0.418

Need phosphorylation enrichment of IDGLEYLHSQG [STK11_Y166] , thanks.
0.445

Need phosphorylation enrichment of EAEPYYRSLRD [NPHS1_Y1139] , thanks.
0.505

Need phosphorylation enrichment of SADIAYNFRHG [PAH_Y166_F161S_YF] , thanks.
0.433

Need phosphorylation enrichment of LVKDPYVMFPQ [PLEKHG2_Y489_P484L] , thanks.
7.45

Need phosphorylation enrichment of TLLSAYQIPRT [GAB2_Y324_P320L] , thanks.
0.418

Need phosphorylation enrichment of DQVEQYNKELE [LMNA_Y259_K260N] , thanks.
0.552

Need phosphorylation enrichment of EPFEVYRIVPE [IRF8_Y110_K108E_YF] , thanks.
1.25

Need phosphorylation enrichment of RNDRVYQPLRD [CD3D_Y149_Q147R] , thanks.
0.41

Need phosphorylation enrichment of LRFDVYGGENE [STOX1_Y610_E608D_YF] , thanks.
0.509

Need phosphorylation enrichment of IRKKFYRAILE [CHD7_Y1218_Q1214R_YF] , thanks.
0.426

###

system: c-Abl (mouse); test: phosphorylation enrichment, bacterial display (enrichment ratio); higher = better substrate or ligand; peptides without Tyr show the background
reportedEndpoint: phosphorylation enrichment
No unit in the answer, please; the number alone is enough.

Which phosphorylation enrichment is reported with c-Abl (mouse) for this entry: KNGSNYVVKGN [KIT_Y823_D820G] ?
0.411

Which phosphorylation enrichment is reported with c-Abl (mouse) for this entry: GFRVFYTPDSR [PTPRF_Y451_YF] ?
0.612

Which phosphorylation enrichment is reported with c-Abl (mouse) for this entry: FGVTLYPNSRE [MEP1A_Y472] ?
0.995

Which phosphorylation enrichment is reported with c-Abl (mouse) for this entry: PLQKIYNFNVL [SLC4A1_Y553_T552I_YF] ?
1.06

Which phosphorylation enrichment is reported with c-Abl (mouse) for this entry: RAMPVYEKAEH [TP63_Y231_K232E] ?
0.576

Which phosphorylation enrichment is reported with c-Abl (mouse) for this entry: KRGVSYILKLA [SERPINB1_Y84_A82V] ?
0.768

Which phosphorylation enrichment is reported with c-Abl (mouse) for this entry: TMKSHYMELFD [BBS2_Y644_R643H_YF] ?
0.572

Which phosphorylation enrichment is reported with c-Abl (mouse) for this entry: DQVEQYNKELE [LMNA_Y259_K260N] ?
0.692

Which phosphorylation enrichment is reported with c-Abl (mouse) for this entry: VSKGGYFSVNL [C3orf33_Y164] ?
0.682

Which phosphorylation enrichment is reported with c-Abl (mouse) for this entry: PEVRRCVLPLN [RPE65_Y368_Y368C] ?
0.871

Which phosphorylation enrichment is reported with c-Abl (mouse) for this entry: DESEDYRDTVV [CNNM3_Y456] ?
0.897

Which phosphorylation enrichment is reported with c-Abl (mouse) for this entry: TLLSAYQIPRT [GAB2_Y324_P320L] ?
9.51

Which phosphorylation enrichment is reported with c-Abl (mouse) for this entry: DYSLKYATDIP [APC_Y1183] ?
0.736

Which phosphorylation enrichment is reported with c-Abl (mouse) for this entry: KMKGEYYRYLA [YWHAG_Y130_D129E] ?
1.34

###

molecular target: FGFR1 (UniProt P11362); experiment: phosphorylation enrichment, bacterial display (enrichment ratio); higher = better substrate or ligand; peptides without Tyr show the background
Use true (1) when the recorded phosphorylation enrichment is no lower than 0.5; use false (0) when it is lower.

Would you say DTNIAYCLHPR [POMT1_Y581_W582C] shows phosphorylation enrichment at minimum 0.5?
false (0)

Would you say AALVQYYMEHH [PTPN11_Y80_E76A] shows phosphorylation enrichment at minimum 0.5?
true (1)

Would you say ILGRTYFVNHE [NEDD4_Y627_YF] shows phosphorylation enrichment at minimum 0.5?
false (0)

Would you say PTTKTYFPQFD [HBA1_Y43_H46Q] shows phosphorylation enrichment at minimum 0.5?
true (1)

Would you say LARHMYDKEYY [MET_Y1230_D1228H] shows phosphorylation enrichment at minimum 0.5?
true (1)

Would you say DLSEVYKPCRK [CCDC93_Y176_R179C] shows phosphorylation enrichment at minimum 0.5?
true (1)

Would you say LQPNNYQFCGG [CSF1R_Y969] shows phosphorylation enrichment at minimum 0.5?
true (1)

Would you say LASSEYPVRRR [GALK1_Y236] shows phosphorylation enrichment at minimum 0.5?
false (0)

Would you say ERIEFYELDKK [PMM2_Y145] shows phosphorylation enrichment at minimum 0.5?
false (0)

Would you say FGDTPYIPFRD [CDC14C_Y132] shows phosphorylation enrichment at minimum 0.5?
true (1)

Would you say TPGPNYRPGFN [USH2A_Y463_YF] shows phosphorylation enrichment at minimum 0.5?
true (1)

Would you say LSDGPYSNSYE [EPOR_Y485_P488S] shows phosphorylation enrichment at minimum 0.5?
true (1)

###

target: EPHB2 (UniProt P29323); experiment: phosphorylation enrichment, bacterial display (enrichment ratio); higher = better substrate or ligand; peptides without Tyr show the background
Sequence (P29323 whole entry, looked up): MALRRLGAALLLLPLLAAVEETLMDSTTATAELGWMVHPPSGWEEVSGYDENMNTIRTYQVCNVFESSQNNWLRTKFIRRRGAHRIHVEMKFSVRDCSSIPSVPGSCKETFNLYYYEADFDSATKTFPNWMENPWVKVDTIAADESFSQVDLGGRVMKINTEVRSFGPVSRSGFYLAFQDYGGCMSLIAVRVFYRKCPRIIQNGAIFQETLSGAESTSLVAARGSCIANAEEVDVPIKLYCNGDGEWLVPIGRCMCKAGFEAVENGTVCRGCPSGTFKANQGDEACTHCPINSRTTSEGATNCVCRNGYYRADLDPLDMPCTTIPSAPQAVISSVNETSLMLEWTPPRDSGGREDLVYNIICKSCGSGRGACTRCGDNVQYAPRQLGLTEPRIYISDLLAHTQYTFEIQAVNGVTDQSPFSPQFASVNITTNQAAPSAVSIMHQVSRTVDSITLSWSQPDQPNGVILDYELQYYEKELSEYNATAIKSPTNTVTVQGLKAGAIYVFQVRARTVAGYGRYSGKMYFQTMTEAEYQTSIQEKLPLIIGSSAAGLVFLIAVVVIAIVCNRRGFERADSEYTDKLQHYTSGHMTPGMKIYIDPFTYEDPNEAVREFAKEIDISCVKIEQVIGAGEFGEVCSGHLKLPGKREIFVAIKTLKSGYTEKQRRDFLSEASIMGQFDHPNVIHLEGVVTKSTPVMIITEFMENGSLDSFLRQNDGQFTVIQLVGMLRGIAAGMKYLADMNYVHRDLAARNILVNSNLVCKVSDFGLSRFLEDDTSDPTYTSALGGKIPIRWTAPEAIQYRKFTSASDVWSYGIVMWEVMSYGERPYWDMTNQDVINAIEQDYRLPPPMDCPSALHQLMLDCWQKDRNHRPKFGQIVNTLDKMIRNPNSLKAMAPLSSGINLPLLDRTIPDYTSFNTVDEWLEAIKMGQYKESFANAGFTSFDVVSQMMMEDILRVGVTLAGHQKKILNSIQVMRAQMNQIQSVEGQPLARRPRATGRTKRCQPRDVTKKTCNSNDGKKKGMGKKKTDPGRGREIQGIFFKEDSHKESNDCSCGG
Use condition met when the recorded phosphorylation enrichment is no lower than 0.6; use condition not met when it is lower.

Would you say TQTPPYVKKHR [LARP1B_Y457_P462R] shows phosphorylation enrichment at minimum 0.6?
condition not met

Would you say FFWDGYMPRQF [GSS_Y270_R267W_YF] shows phosphorylation enrichment at minimum 0.6?
condition not met

Would you say CTTSHYNYMCN [TP53_Y234_I232S] shows phosphorylation enrichment at minimum 0.6?
condition not met

Would you say LTDRGYSFVTT [ACTA1_Y200_E197D] shows phosphorylation enrichment at minimum 0.6?
condition met

Would you say RLAQRYLIWEC [SCN5A_Y694] shows phosphorylation enrichment at minimum 0.6?
condition met

Would you say KWKQKYEESQS [MYH6_Y1462_E1457K] shows phosphorylation enrichment at minimum 0.6?
condition not met

Would you say VYYDLYGGEKF [PTPN11_Y66_D61V] shows phosphorylation enrichment at minimum 0.6?
condition met

Would you say ISSLCYELLEE [TRPC6_Y896_R895C] shows phosphorylation enrichment at minimum 0.6?
condition met

Would you say ESLSSYRESAK [APOC2_Y47_W48R] shows phosphorylation enrichment at minimum 0.6?
condition not met

Would you say DYGSGYPNDPK [RNASEH2A_Y210] shows phosphorylation enrichment at minimum 0.6?
condition met

Would you say RRIHNYRGHLW [VHL_Y112_S111N] shows phosphorylation enrichment at minimum 0.6?
condition not met

Would you say GENTVYAQVFN [LY9_Y603_M602V] shows phosphorylation enrichment at minimum 0.6?
condition met

Would you say RSIGEYDVLRG [PRKDC_Y2936] shows phosphorylation enrichment at minimum 0.6?
condition met

Would you say RRAVKYLQMVG [AVPR2_Y117_C112R] shows phosphorylation enrichment at minimum 0.6?
condition met

Would you say NSIGNYYKPWF [DHCR24_Y299] shows phosphorylation enrichment at minimum 0.6?
condition met

Would you say PSGPMYRGAVP [ASAH1_Y43_T42M] shows phosphorylation enrichment at minimum 0.6?
condition not met

Would you say ANQDDYISFRH [IMP4_Y226] shows phosphorylation enrichment at minimum 0.6?
condition not met

Would you say FARNSYVAGQF [G6PD_Y107_YF] shows phosphorylation enrichment at minimum 0.6?
condition not met

Would you say ATPKGYETDAS [OTC_Y223_P225T] shows phosphorylation enrichment at minimum 0.6?
condition not met

Would you say GPSTPYTKSKC [SMARCC2_Y324_R329C] shows phosphorylation enrichment at minimum 0.6?
condition not met

Would you say KELAPYDENRF [RPS19_Y48_W52R] shows phosphorylation enrichment at minimum 0.6?
condition not met

Would you say GLTSTYAGIRK [ROBO1_Y932] shows phosphorylation enrichment at minimum 0.6?
condition not met

Would you say MDQAEYQAKIR [DHX58_Y518] shows phosphorylation enrichment at minimum 0.6?
condition not met

Would you say IMAYFYMCDRA [CASD1_Y382] shows phosphorylation enrichment at minimum 0.6?
condition met

Would you say RSRSSYTHSLN [MYCT1_Y116_G119S] shows phosphorylation enrichment at minimum 0.6?
condition not met

Would you say DGTGHYLCNAC [GATA5_Y208] shows phosphorylation enrichment at minimum 0.6?
condition not met

Would you say LTQRTYMSENA [GPAA1_Y49] shows phosphorylation enrichment at minimum 0.6?
condition not met
